Target: CDK17/Cyclin Y (Homo sapiens, UniProt Q00537)
Sequence (Q00537 whole entry): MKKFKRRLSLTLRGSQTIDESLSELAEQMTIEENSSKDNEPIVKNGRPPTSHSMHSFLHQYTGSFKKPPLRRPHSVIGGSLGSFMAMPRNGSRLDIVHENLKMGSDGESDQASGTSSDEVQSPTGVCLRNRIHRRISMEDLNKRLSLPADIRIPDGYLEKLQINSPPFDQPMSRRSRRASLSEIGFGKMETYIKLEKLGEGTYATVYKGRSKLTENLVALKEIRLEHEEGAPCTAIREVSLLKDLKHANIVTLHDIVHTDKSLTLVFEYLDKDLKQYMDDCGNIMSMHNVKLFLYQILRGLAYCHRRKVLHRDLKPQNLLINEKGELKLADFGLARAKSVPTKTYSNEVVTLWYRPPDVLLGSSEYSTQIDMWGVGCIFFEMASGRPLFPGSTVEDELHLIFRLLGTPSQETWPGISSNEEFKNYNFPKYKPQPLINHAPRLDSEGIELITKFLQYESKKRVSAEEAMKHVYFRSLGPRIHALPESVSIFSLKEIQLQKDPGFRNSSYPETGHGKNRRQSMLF
Sequence (Q8ND76 whole entry partner): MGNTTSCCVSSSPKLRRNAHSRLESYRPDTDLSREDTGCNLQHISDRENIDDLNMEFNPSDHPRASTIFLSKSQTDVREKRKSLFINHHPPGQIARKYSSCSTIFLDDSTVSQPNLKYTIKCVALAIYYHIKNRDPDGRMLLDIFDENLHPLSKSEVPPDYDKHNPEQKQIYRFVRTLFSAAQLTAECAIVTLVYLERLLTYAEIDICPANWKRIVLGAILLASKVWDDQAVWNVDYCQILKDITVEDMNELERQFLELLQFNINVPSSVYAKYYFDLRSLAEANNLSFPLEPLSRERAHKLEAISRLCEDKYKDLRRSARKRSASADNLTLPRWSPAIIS
Experiment: NanoBRET live-cell target engagement, CDK17-NanoLuc/Cyclin Y in HEK-293
Assay type: binding
Details: 10µM; average of experiments
property: CDK17/Y Inhibition at 10µM (%)

compound	property	unitText	testResult
O=C1NC(=NCc2cccs2)S/C1=C\c1ccc2ncccc2c1	CDK17/Y Inhibition at 10µM (%)	%	40.0
O=C1NCCc2[nH]c(-c3ccncc3)cc21	CDK17/Y Inhibition at 10µM (%)	%	24.8
CN(C)C/C=C/C(=O)Nc1ccc(C(=O)Nc2cccc(Nc3ncc(Cl)c(-c4c[nH]c5ccccc45)n3)c2)cc1	CDK17/Y Inhibition at 10µM (%)	%	50.4
Cc1c(Br)c(Br)c2c3c1nc(N1CCNCC1)n3CCC2.Cl [SEL 120-34A]	CDK17/Y Inhibition at 10µM (%)	%	38.7
